target: M. truncatula GSII-2a (Medicago truncatula, UniProt Q84UC1)
Sequence (Q84UC1 50-428): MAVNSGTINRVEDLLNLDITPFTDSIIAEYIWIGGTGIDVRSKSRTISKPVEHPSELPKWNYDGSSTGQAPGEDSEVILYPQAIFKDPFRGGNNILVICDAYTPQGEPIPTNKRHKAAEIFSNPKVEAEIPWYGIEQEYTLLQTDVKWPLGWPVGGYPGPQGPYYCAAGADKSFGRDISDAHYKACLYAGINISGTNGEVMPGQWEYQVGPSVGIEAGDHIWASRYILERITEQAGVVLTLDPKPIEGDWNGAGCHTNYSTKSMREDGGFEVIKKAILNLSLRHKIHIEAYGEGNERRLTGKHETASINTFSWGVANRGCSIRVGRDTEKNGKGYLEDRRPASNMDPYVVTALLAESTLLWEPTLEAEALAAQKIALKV
protocol: GS synthetase reaction inhibition, GSII-2a
Type: biochemical
measured parameter: pIC50
// field semantics: pIC50 = negative decimal log of concentration (mol/L)

Any idea what pIC50 was measured for CP(=O)(O)CC[C@H](N)C(=O)O ? 3.59
